tested-target: HDAC2 Human recombinant C-terminal FLAG-tag (Homo sapiens, UniProt Q92769)
Construct: FLAG (C); purchased BPS Bioscience 50052
Sequence (Q92769 whole entry): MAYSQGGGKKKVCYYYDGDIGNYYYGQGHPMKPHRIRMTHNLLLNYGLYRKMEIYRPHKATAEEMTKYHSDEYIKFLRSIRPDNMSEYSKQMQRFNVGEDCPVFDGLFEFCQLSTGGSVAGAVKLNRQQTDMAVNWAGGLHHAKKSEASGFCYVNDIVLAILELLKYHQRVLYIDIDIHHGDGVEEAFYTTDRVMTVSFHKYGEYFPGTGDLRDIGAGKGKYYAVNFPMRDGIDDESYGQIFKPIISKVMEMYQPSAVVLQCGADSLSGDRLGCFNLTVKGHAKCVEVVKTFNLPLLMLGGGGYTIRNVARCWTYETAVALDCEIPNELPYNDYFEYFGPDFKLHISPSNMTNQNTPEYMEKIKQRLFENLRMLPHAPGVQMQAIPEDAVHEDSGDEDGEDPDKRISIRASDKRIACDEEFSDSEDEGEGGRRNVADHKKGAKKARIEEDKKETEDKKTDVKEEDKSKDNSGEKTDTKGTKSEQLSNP
assay-notes: Measurement of HDAC2 enzyme inhibitory activity (HTRF)
Assay type: biochemical
experimental-setup: recombinant HDAC2, H3K9ac peptide, 3 hours room temperature; read-out: HDAC2 IC50
measured-attribute: IC50 (nM)

CCc1ccc(C(=O)Nc2cc(-c3ccc(F)nc3)ccc2N)nc1
120

[a] CC(C)c1cnc(C(=O)Nc2cc(-c3ccc(F)nc3)ccc2N)cn1
[b] Nc1ccc(-n2ccc(F)c2)cc1NC(=O)c1cnc(N2CCC2)cn1
q: Which value of IC50 is smaller, the one for a or the one for b ? Pick one; state its label.
a: b

----------
tested-target: HDAC2 Human recombinant C-terminal FLAG-tag (Homo sapiens, UniProt Q92769)
Construct: FLAG (C); purchased BPS Bioscience 50052
assay-notes: Measurement of HDAC2 enzyme inhibitory activity (HTRF)
Type: biochemical
experimental-setup: recombinant HDAC2, H3K9ac peptide, 3 hours room temperature; read-out: HDAC2 IC50
pIC50: −log10 of the molar value.
measured-attribute: pIC50

[a] Cn1cc(-c2ccc(C(=O)Nc3cc(-c4cnco4)ccc3N)nc2)cn1 [Compound I-004]
[b] CN(C)c1ccc(C(=O)Nc2cc(-c3ccc(F)nc3)ccc2N)nn1 [Compound I-263]
[c] Nc1ccc(-n2cccc2)nc1NC(=O)c1cnc(N2CCOCC2)cn1 [Compound I-030]
[d] CCc1cnc(C(=O)Nc2nc(-c3ccccc3)ccc2N)cn1 [Compound I-260]
q: Sort entries by pIC50 from minimum to maximum value. In plain terms: list the labels in the order you were asked to.
a: d, c, b, a

[A] CN(C)c1cnc(C(=O)Nc2nc(-n3cccc3)ccc2N)cn1 [Compound I-212]
[B] Nc1ccc(-c2ccc(F)nc2)cc1NC(=O)c1cnc(N2CC3(COC3)C2)cn1 [Compound I-245]
q: Which value of pIC50 is smaller, the one for A or the one for B ? Pick one; state its label.
a: A

----------
tested-target: human ether-a-go-go related gene (hERG) channel (Homo sapiens)
Construct: expressed in transfected cells; host or cells: CHO cells
Sequence (Q12809 whole entry): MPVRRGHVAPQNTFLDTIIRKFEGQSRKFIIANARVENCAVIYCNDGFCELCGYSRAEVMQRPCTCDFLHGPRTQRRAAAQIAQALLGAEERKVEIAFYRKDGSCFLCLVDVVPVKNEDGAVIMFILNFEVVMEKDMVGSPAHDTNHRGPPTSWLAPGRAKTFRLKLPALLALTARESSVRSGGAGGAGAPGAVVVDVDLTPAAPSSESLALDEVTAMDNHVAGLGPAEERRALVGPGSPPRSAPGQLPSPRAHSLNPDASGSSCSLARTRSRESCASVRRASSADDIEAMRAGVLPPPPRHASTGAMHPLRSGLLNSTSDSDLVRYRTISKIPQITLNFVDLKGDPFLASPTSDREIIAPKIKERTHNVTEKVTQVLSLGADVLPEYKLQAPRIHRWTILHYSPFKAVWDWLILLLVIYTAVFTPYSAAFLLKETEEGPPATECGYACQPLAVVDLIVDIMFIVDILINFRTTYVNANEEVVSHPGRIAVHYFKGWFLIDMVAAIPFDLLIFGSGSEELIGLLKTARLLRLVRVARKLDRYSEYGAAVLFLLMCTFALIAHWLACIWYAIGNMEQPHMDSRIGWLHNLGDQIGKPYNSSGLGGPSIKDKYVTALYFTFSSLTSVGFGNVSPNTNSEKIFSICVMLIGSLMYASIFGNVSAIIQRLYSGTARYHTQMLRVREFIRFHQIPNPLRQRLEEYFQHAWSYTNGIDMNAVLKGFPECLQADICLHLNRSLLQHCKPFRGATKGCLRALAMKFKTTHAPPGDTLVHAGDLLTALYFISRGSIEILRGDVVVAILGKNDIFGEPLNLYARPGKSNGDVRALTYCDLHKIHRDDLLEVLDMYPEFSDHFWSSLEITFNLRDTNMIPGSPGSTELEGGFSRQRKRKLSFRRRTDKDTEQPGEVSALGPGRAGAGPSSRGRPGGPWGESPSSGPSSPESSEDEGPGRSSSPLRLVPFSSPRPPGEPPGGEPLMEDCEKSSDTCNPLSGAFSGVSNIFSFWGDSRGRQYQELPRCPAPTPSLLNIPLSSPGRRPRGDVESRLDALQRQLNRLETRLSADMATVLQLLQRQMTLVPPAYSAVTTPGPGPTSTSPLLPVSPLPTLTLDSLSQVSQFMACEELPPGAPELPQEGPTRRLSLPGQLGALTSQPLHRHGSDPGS
assay-notes: hERG test (whole cell patch clamp)
Type: cell-based
experimental-setup: CHO cells expressing hERG; concentration not given
measured-attribute: % inhibition of tail peak current (IKr) (%)
Respond numerically; units are % and should not be typed.

Cn1cc(-c2ccc(N)c(NC(=O)c3cnc(C4CC4)cn3)c2)cn1
3.3
CCOc1cnc(C(=O)Nc2cc(-c3ccc(F)nc3)ccc2N)cn1
23.3
Cn1cc(-c2cnc(C(=O)Nc3cc(-c4ccc(F)nc4)ccc3N)cn2)cn1
9.5

Shifting focus to the compound that follows.
q: Param request: % inhibition of tail peak current (IKr) | system human ether-a-go-go related gene (hERG) channel (Homo sapiens) | item C[C@H](F)COc1cnc(C(=O)Nc2cc(-c3ccc(F)nc3)ccc2N)cn1 (racemic)
a: 18.6

----------
Examples of molecules with documented inhibition at up to 83.3 µM follow.
Test system: HDACs other than HDAC2 (HDAC2 knockout K562 cells)
assay-notes: Evaluation of HDAC2 selectivity: H3K9 histone acetylation in HDAC2 knockout K562 cells (AlphaLISA);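 note: 0% inhibition equals DMSO-treated group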
Type: cell-based
experimental-setup: Homo sapiens, maximum concentration 83.3 μM, 100% = SAHA-treated group, read-out: maximum inhibition rate (H3K9 histone acetylation)
Respond numerically; units are % and should not be typed.

The following molecules have reported results that may help.
Cn1cc(-c2cnc(C(=O)Nc3nc(-c4cccs4)ccc3N)cn2)cn1
5
Cn1cc(-c2cc(C(=O)Nc3cc(-c4ccc(F)nc4)ccc3N)no2)cn1
5
COCCOc1ccc(C(=O)Nc2cc(-c3ccc(F)nc3)ccc2N)nc1
7
CCOCCOc1cnc(C(=O)Nc2cc(-c3ccc(F)nc3)ccc2N)cn1
5
Nc1ccc(-n2cccc2)nc1NC(=O)c1ccc(C2CC2)cn1
6
Nc1ccc(-n2cccc2)nc1NC(=O)c1cnc(N2CCOCC2)cn1
9

q: Name the recorded inhibition at up to 83.3 µM of the item CC(=O)Nc1ccc(C(=O)Nc2cc(-c3ccc(F)nc3)ccc2N)nc1 in your answer.
a: 8

q: Name the recorded inhibition at up to 83.3 µM of the item Nc1ccc(-n2cccc2)nc1NC(=O)c1cnc(C2CC2)cn1 in your answer.
a: 9

q: Name the recorded inhibition at up to 83.3 µM of the item C[C@H](F)COc1cnc(C(=O)Nc2cc(-c3ccc(F)nc3)ccc2N)cn1 (racemic) in your answer.
a: 6

q: Name the recorded inhibition at up to 83.3 µM of the item Nc1ccc(-c2ccc(F)nc2)cc1NC(=O)c1cnc(OCC2CC2)cn1 in your answer.
a: 3

q: Name the recorded inhibition at up to 83.3 µM of the item Cn1cc(-c2ccc(C(=O)Nc3nc(-c4cccs4)ccc3N)nn2)cn1 in your answer.
a: 8

----------
tested-target: HDAC2 Human recombinant C-terminal FLAG-tag (Homo sapiens, UniProt Q92769)
Construct: FLAG (C); purchased BPS Bioscience 50052
assay-notes: Measurement of HDAC2 enzyme inhibitory activity (HTRF)
Assay type: biochemical
experimental-setup: recombinant HDAC2, H3K9ac peptide, 3 hours room temperature; read-out: HDAC2 IC50
pIC50: −log10 of the molar value.
measured-attribute: pIC50

CC(C)(O)c1ccc(C(=O)Nc2cc(-c3ccc(F)nc3)ccc2N)nc1
6.77
Nc1ccc(-c2cncs2)cc1NC(=O)c1ccc2c(n1)CCCC2
6.47
Nc1ccc(-c2ccc(F)nc2)cc1NC(=O)c1cnc(OCC(F)F)cn1
6.66
Cn1cc(-c2cc(C(=O)Nc3cc(-c4ccc(F)nc4)ccc3N)no2)cn1
6.62
Cn1cc(-c2ccc(N)c(NC(=O)c3ccc(N4CCOCC4)nn3)c2)cn1
6.59
COc1cnc(C(=O)Nc2cc(-c3ccc(F)nc3)ccc2N)cn1
6.62
Cn1cc(-c2ccc(N)c(NC(=O)c3ccc(C(C)(C)C)cn3)c2)cn1
6.59

----------
tested-target: HDAC2 Human recombinant C-terminal FLAG-tag (Homo sapiens, UniProt Q92769)
Construct: FLAG (C); purchased BPS Bioscience 50052
assay-notes: Measurement of HDAC2 enzyme inhibitory activity (HTRF)
Format: biochemical
experimental-setup: recombinant HDAC2, H3K9ac peptide, 3 hours room temperature; read-out: HDAC2 IC50
pIC50: −log10 of the molar value.
measured-attribute: pIC50

The following compounds have reported results that may help.
COc1ccnc(C(=O)Nc2cc(-c3ccc(F)nc3)ccc2N)c1
6.51
Nc1ccc(-c2ccc(F)nc2)cc1NC(=O)c1ccc(N2CCOCC2)cn1
6.89

[a] Cn1cc(-c2cnc(C(=O)Nc3cc(-c4cncs4)ccc3N)cn2)cn1
[b] COCCOc1cnc(C(=O)Nc2cc(-c3cnn(C)c3)ccc2N)cn1
q: Larger number for pIC50: a , or b ? Pick one; state its label.
a: a
(a: 7.51, b: 6.60)

----------
tested-target: HDAC2 Human recombinant C-terminal FLAG-tag (Homo sapiens)
Construct: FLAG (C); purchased BPS Bioscience 50052
assay-notes: Measurement of HDAC2 enzyme inhibitory activity (HTRF)
Type: biochemical
experimental-setup: recombinant HDAC2, H3K9ac peptide, 3 hours room temperature; read-out: HDAC2 IC50
measured-attribute: IC50 (nM)

Nc1ccc(-c2ccc(F)nc2)cc1NC(=O)c1ccc(CN2CCCCC2=O)cn1
84
COC1CN(c2cnc(C(=O)Nc3cc(-c4ccc(F)nc4)ccc3N)cn2)C1
50
CCN(C)c1cnc(C(=O)Nc2cc(-c3cnn(C)c3)ccc2N)cn1
160
Nc1ccc(-c2cncs2)cc1NC(=O)c1cc2c(cn1)OC(F)(F)O2
270
CCOc1ccc(C(=O)Nc2cc(-c3cnn(C)c3)ccc2N)nn1
180

[a] Nc1ccc(-c2ccc(F)nc2)cc1NC(=O)c1cnc(N2CCC23COC3)cn1
[b] Nc1ccc(-c2ccc(F)nc2)cc1NC(=O)c1cnc(N2CC(Cl)(CCO)C2)cn1
q: Which value of IC50 is smaller, the one for a or the one for b ? Pick one; state its label.
a: a

----------
tested-target: HDAC2 Human recombinant C-terminal FLAG-tag (Homo sapiens)
Construct: FLAG (C); purchased BPS Bioscience 50052
assay-notes: Measurement of HDAC2 enzyme inhibitory activity (HTRF)
Assay type: biochemical
experimental-setup: recombinant HDAC2, H3K9ac peptide, 3 hours room temperature; read-out: HDAC2 IC50
pIC50: −log10 of the molar value.
measured-attribute: pIC50

The following compounds have reported results that may help.
Cn1cc(-c2ccc(C(=O)Nc3cc(-c4ccon4)ccc3N)nc2)cn1 [Compound I-084]
6.51
Cn1cc(-c2ccc(N)c(NC(=O)c3cc4c(cn3)OCCC4)c2)cn1 [Compound I-255]
6.39
CN(C)c1cnc(C(=O)Nc2nc(-c3ccccc3)ccc2N)cn1 [Compound I-213]
6.51
Nc1ccc(-c2cncs2)cc1NC(=O)c1ccc(Cl)cn1 [Compound I-071]
6.80
CC(=O)Nc1ccc(C(=O)Nc2cc(-c3ccc(F)nc3)ccc2N)nc1 [Compound I-280]
7.30
Nc1ccc(-c2ccc(F)nc2)cc1NC(=O)c1cnc(N2CCC2)cn1 [Compound I-221]
7.30
Nc1ccc(-c2ccc(F)nc2)cc1NC(=O)c1cnc(N2Cc3cccnc3C2)cn1 [Compound I-279]
7.30
Cn1cc(-c2ccc(N)c(NC(=O)c3cnc(C4CC4)cn3)c2)cn1 [Compound I-130]
6.85

[1] CCN(C)c1cnc(C(=O)Nc2cc(-c3ccc(F)nc3)ccc2N)cn1 [Compound I-220]
[2] Cn1cc(-c2ccc(C(=O)Nc3cc(-n4cccc4)ccc3N)nc2)cn1 [Compound I-056]
[3] CC#Cc1ccc(C(=O)Nc2cc(-c3cncs3)ccc2N)nc1 [Compound I-094]
q: Order by pIC50, ascending. In plain terms: list the labels in the order you were asked to.
a: 3, 2, 1
